target: Keap1 (Homo sapiens (Human)); test: HEK293 ARE luciferase assay; conditions: HEK-293 ARE firefly luciferase transiently transfected cells; 18 h incubation; mean of 1 to 20 individual measurements
Sequence (Q14145 whole entry): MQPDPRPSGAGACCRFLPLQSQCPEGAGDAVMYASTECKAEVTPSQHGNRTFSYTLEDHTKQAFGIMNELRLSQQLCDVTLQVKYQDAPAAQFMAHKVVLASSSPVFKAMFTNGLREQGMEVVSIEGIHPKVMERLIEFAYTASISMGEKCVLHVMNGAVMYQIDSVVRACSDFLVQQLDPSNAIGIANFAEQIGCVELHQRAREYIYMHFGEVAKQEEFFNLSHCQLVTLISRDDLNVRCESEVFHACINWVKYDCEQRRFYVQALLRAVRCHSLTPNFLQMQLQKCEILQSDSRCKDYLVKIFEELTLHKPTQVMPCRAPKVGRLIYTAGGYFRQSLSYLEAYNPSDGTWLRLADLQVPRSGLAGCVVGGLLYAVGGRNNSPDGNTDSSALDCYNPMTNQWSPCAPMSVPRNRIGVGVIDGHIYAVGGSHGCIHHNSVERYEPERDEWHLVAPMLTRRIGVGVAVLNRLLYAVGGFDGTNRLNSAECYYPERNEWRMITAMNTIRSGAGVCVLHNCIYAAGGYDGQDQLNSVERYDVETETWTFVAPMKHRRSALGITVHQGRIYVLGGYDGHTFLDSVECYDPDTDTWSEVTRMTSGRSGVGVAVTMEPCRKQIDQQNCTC
pEC50: −log10 of the molar value.
If the reported pEC50 equals or exceeds 7, assign criterion met. If not, assign criterion not met.

• COC1(c2nccc3ccccc23)C=C(C#N)C(=O)C(C)(C)C1 (centres unmarked) = criterion not met
• COC1(c2cncc(C)n2)C=C(C#N)C(=O)C2(CC2)C1 (centres unmarked) [Compound 131] = criterion not met
• COC1(c2ncc(F)cc2-c2cncc(S(C)(=O)=O)c2)C=C(C#N)C(=O)C(C)(C)C1 (centres unmarked) [Compound 96] = criterion met
• COC1(c2ncc(F)cc2-c2ccnc(C)c2)C=C(C#N)C(=O)C(C)(C)C1 (single isomer, unassigned) [Compound 76] = criterion met
• COc1ncc(C)cc1-c1cc(F)cnc1C1(OC)C=C(C#N)C(=O)C(C)(C)C1 (single isomer, unassigned) = criterion met

[ask] Is pEC50 at least 7? Consider COC1(c2ncc(Cl)cc2F)C=C(C#N)C(=O)C2(CC2)C1 (centres unmarked) [Compound 157]
[reply] criterion not met

[ask] Now try `CO[C@]1(c2ncc(F)cc2C(F)F)C=C(C#N)C(=O)C(C)(C)C1` .
[reply] criterion met

====

The entries below come with measured pEC50 values attached.
target: Keap1 (Homo sapiens (Human)); assay: HEK293 ARE luciferase assay; conditions: HEK-293 ARE firefly luciferase transiently transfected cells; 18 h incubation; mean of 1 to 20 individual measurements
Please report pEC50 as the negative decimal logarithm of the molar concentration, giving only the number.

Recorded pEC50, per entry:
- COC1(c2ccc(C)cn2)C=C(C#N)C(=O)C(C)(C)C1 (centres unmarked): 7.30
- COC1(c2ccc(F)cn2)C=C(C#N)C(=O)C(C)(C)C1 (single isomer, unassigned) [Compound 27]: 6.74
- COC1(c2nc(C)c(-c3ccccn3)s2)C=C(C#N)C(=O)C2(CC2)C1 (centres unmarked) [Compound 194]: 6.69
- COC1(c2ncc(F)cc2-c2cnn(C3CC3)c2)C=C(C#N)C(=O)C(C)(C)C1 (single isomer, unassigned) [Compound 72]: 8.22

[ask] Consider the compound shown here: COC1(c2ncc(F)cc2C)C=C(C#N)C(=O)C2(CCCC2)C1 (centres unmarked) [Compound 153] What is its recorded pEC50?
[reply] 5.15

[ask] Now try COC1(c2ncc(F)cc2-c2cncc(F)c2)C=C(C#N)C(=O)C(C)(C)C1 (centres unmarked) [Compound 182] .
[reply] 6.98

[ask] Now try COC1(c2ccc(C)nc2C)C=C(C#N)C(=O)C(C)(C)C1 (centres unmarked) .
[reply] 7.04

[ask] Now try COC1(c2ncc(F)cc2-c2sc(C)nc2C)C=C(C#N)C(=O)C(C)(C)C1 (single isomer, unassigned) [Compound 93] .
[reply] 8.30

====

biological target: Keap1 (Homo sapiens (Human)); test: HEK293 ARE luciferase assay; details: HEK-293 ARE firefly luciferase transiently transfected cells; 18 h incubation; mean of 1 to 20 individual measurements
recorded-metric: EC50 (µM)
Provide only the numeric value, understood in µM.

Recorded EC50, per entry:
- CCOC1(c2ncccc2C(F)(F)F)C=C(C#N)C(=O)C(C)(C)C1 (single isomer, unassigned) [Compound 35]: 0.039
- COC1(c2nc(C)cs2)C=C(C#N)C(=O)C(C)(C)C1 (centres unmarked) [Compound 142]: 0.06
- COC1(c2cccc(-c3c(C)noc3C)n2)C=C(C#N)C(=O)C(C)(C)C1 (centres unmarked) [Compound 105]: 0.036
- COC1(c2ncc(F)cc2-c2cnc(C)s2)C=C(C#N)C(=O)C(C)(C)C1 (centres unmarked) [Compound 168]: 0.012
- COC1(c2ncc(F)cc2-c2ccn3ncnc3c2)C=C(C#N)C(=O)C(C)(C)C1 (centres unmarked) [Compound 190]: 1.68
- COC1(c2ncc(F)cc2-c2cnn3c2CCC3)C=C(C#N)C(=O)C(C)(C)C1 (single isomer, unassigned) [Compound 231]: 0.016
- COC1(c2ncc(F)cc2C)C=C(C#N)C(=O)C(C)(C)C1 (single isomer, unassigned) [Compound 31]: 0.019

Switching to the query record.
[ask] Consider the molecule shown here: CCn1cc(-c2cc(F)cnc2C2(OC)C=C(C#N)C(=O)C(C)(C)C2)cn1 (centres unmarked) [Compound 181] What is its recorded EC50?
[reply] 0.068
